# protocol: probe aLAP1 signal on lysate-treated microarray – cell lysate, small-molecule microarray, COS7 lysate, primary screen (AID 1124);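 note: lysate comes from COS7 cells expressing LAP1 and is applied at 0.3 µg/mL; score merges spot fluorescence near 667 nm with signal-to-noise over triplicate slides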
# setup_conditions: probe aLAP1, fluorescence, higher = more signal

- compound: "CCCCC(O)C1C=CC2C(=O)N(c3ccccc3)C(=O)C2N1Nc1ccccc1 (centres undefined)"
  composite z-score: -0.0672
- compound: "COCCCNC(=O)[C@@H]1c2ccccc2C(=O)N(Cc2ccc(OC(F)(F)F)cc2)[C@H]1c1ccc(CO)cc1"
  composite z-score: 1.28
- compound: "Cc1ccccc1C(O)C1C=CC2C(=O)N(c3ccccc3)C(=O)C2N1Nc1ccccc1 (centres undefined)"
  composite z-score: 0.0139
- compound: "C=C(/C(=C/C[C@@H](OC(C)=O)c1cccc(OCCO)c1)c1cnc2ccccc2c1)C(C)C"
  composite z-score: -0.149
- compound: "CN(C)CCCNC(=O)[C@@]1(C)c2ccccc2C(=O)N(Cc2ccc(OC(F)(F)F)cc2)[C@H]1c1ccc(CO)cc1"
  composite z-score: 1.03
- compound: "CC[C@@H]1C=C(C(=O)O)[C@H](c2ccc(OC)cc2)N1S(=O)(=O)c1ccc(C)cc1"
  composite z-score: -0.388
- compound: "COC(=O)[C@@]1(Cc2ccccc2)[C@H]2c3cc(C(=O)N(C)C)n(Cc4ccc(C(F)(F)F)nc4)c3C[C@H]2CN1C(=O)c1ccccc1"
  composite z-score: 0.427
- compound: "COc1ccc(C(=O)Nc2ccc(CN3C(=O)[C@@]4(O[C@@H](CCn5cc(CCO)nn5)[C@H]([Si](C)(C)c5ccc(OC)cc5)[C@H]4C)c4ccccc43)cc2)cc1"
  composite z-score: 0.116
- compound: "COC(=O)C(CC#Cc1ccc2c(c1)[C@]1(C(=O)N2)[C@H](C(=O)NC[C@H](O)c2ccccc2)[C@H]2C(=O)O[C@H](c3ccccc3)[C@H](c3ccccc3)N2[C@@H]1c1ccccc1OCCO)C(=O)OC"
  composite z-score: 0.298
- compound: "C=C(CCCC)C(=O)CC[C@H](OC(=O)c1ccccc1-c1ccccc1C(=O)O)c1ccc(OCCO)cc1"
  composite z-score: -0.0334
- compound: "C=C(COC)C(=O)CC[C@H](OC(=O)c1cccnc1)c1ccc(OCCO)cc1"
  composite z-score: 1.53
- compound: "COc1ccc([Si](C)(C)[C@H]2[C@H](CC(=O)N3Cc4ccccc4C[C@H]3CO)O[C@@]3(C(=O)N(C)c4ccccc43)[C@@H]2C)cc1"
  composite z-score: 0.941
- compound: "C=C1C(=O)C=C2CN(C(=O)c3ccccc3)[C@@](Cc3ccc(OC)cc3)(C(=O)OC)[C@@H]12"
  composite z-score: 0.471
- compound: "O=C(NCC(O)CO)[C@@]1(CCS(=O)(=O)c2ccccc2)N=C(c2ccc(OCCCO)cc2)O[C@H]1c1ccccc1 (some centres undefined)"
  composite z-score: 1.11
- compound: "[N-]=[N+]=Nc1ccccc1C[C@@]1(C(=O)NCC(O)CO)N=C(c2ccc(OCCCO)cc2)O[C@@H]1c1ccccc1 (some centres undefined)"
  composite z-score: 0.353
- compound: "C=CC[C@@]12N=C(c3ccc(OCCCO)cc3)O[C@@H]1c1ccccc1N(CCC)C2=O"
  composite z-score: -0.227
- compound: "COC(=O)[C@@]1(Cc2ccc(OC)cc2)[C@H]2c3cc(C(=O)N4CCCC4)n(Cc4c(CO)[nH]cc(C)c4=O)c3C[C@H]2CN1C(=O)c1ccccc1"
  composite z-score: 1.32
- compound: "COC(=O)C(CC#Cc1ccc2c(c1)[C@]1(C(=O)N2)[C@H](c2ccccc2OCCO)N2[C@H](c3ccccc3)[C@H](c3ccccc3)OC(=O)[C@H]2[C@@H]1C(=O)N1CCc2cc(OC)c(OC)cc2C1)C(=O)OC"
  composite z-score: 0.653
- compound: "COC(=O)C1(Cc2ccccc2)C=C2C(=C(C)C(=O)C2C)CN1 (centres undefined)"
  composite z-score: 0.578
- compound: "O=C1N(CCS(=O)(=O)c2ccccc2)c2ccccc2C[C@]12N=C(c1ccc(OCCCO)cc1)O[C@@H]2c1ccccc1"
  composite z-score: 2.17
- compound: "C=CCOC(=O)[C@@H]1[C@H]2C(=O)O[C@H](c3ccccc3)[C@H](c3ccccc3)N2[C@H](c2ccc(OCCOC(=O)[C@H]3C[C@H]4C(=O)N[C@@H](CCCCN(C)C)C(=O)N4[C@H]3c3ccc(O)cc3)cc2)[C@@]12C(=O)Nc1ccc(I)cc12"
  composite z-score: 0.148
- compound: "COC(=O)[C@]1(Cc2ccccc2)N=C(c2ccc(OCCCO)cc2)O[C@@H]1c1ccccc1CN=[N+]=[N-]"
  composite z-score: -0.0103
- compound: "Cc1ccc(N2C(=O)c3ccccc3[C@](C)(C(=O)NCCCN(C)C)[C@@H]2c2ccc(CO)cc2)nc1"
  composite z-score: -0.728
- compound: "CN(C)c1ccc(C(O)C2C=CC3C(=O)N(Cc4ccccc4)C(=O)C3N2n2cnnc2)cc1 (centres undefined)"
  composite z-score: -0.0894
- compound: "N#Cc1ccc(C(O)C2C=CC3C(=O)NC(=O)C3N2Nc2ccc(Cl)cc2Cl)cc1 (centres undefined)"
  composite z-score: 1.48
- compound: "CN1C(=O)[C@@H]2[C@@H](CC(COc3ccccc3)=C3[C@@H](CCc4ccccc4)OB(O)C[C@@H]32)C1=O"
  composite z-score: 0.809
- compound: "C=CCN1Cc2ccccc2[C@H]2OC(c3ccc(OCCCO)cc3)=N[C@@]2(CCS(=O)(=O)c2ccccc2)C1=O"
  composite z-score: 0.333
- compound: "O=C1C[C@@](C(=O)NCc2ccccc2)(c2ccc([N+](=O)[O-])cc2)[C@@H](c2ccc(CO)cc2)N1C1CCCCC1"
  composite z-score: 1.76
- compound: "C=CCC(OC(C)=O)[C@@H]1[C@@H](N(Cc2cccc3ccccc23)C(=O)Cc2ccc(OC)cc2)c2cc(OCCCO)ccc2N1C(=O)Cc1ccc2ccccc2c1 (some centres undefined)"
  composite z-score: 0.078
